- ASSAYED SYSTEM: rhIDO (recombinant human IDO) (Homo sapiens, UniProt P14902)
- Sequence (P14902 whole entry): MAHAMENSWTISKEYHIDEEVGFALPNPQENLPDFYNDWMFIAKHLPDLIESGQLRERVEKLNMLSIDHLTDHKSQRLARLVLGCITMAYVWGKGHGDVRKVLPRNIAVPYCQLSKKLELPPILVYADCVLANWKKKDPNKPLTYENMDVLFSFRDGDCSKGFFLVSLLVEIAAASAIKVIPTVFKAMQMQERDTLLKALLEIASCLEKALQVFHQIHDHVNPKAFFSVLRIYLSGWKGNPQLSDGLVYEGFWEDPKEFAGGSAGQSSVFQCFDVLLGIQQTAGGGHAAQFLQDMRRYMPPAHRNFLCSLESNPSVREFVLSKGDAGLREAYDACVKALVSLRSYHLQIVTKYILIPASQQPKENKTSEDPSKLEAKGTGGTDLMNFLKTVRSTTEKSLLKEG
- PROTOCOL SUMMARY: Enzyme assay using rhIDO (rate of kynurenine production)
- Type: biochemical
- EXPERIMENTAL SETUP: 2 h; final concentration of the compound 10 μM; rate relative to reaction without compound; read-out: rhIDO-mediated kynurenine production
Structures can show the parent of a compound that is named as a salt.
Kindly apply the following: Criterion met if remaining activity at 10 µM is less than 20%, Criterion not met in every other case.

Example results:
// query Strictly below 20%: is that where remaining activity at 10 µM of N#Cc1ccc(CNC(=O)c2ncccc2CSC(=N)N)cc1 [Compound 99, hydrobromide] sits?
// result Criterion not met

// query Strictly below 20%: is that where remaining activity at 10 µM of N/C(=N\c1ccc(Br)cc1)SCc1ccc(F)cc1CS/C(N)=N/c1ccc(Br)cc1 [Compound 126, dihydrobromide] sits?
// result Criterion met

// query Strictly below 20%: is that where remaining activity at 10 µM of Clc1ccc(Cl)c(CN2CN=C(SCc3ccccc3CSC3=NCN(Cc4cc(Cl)ccc4Cl)CN3)NC2)c1 sits?
// result Criterion not met

// query Strictly below 20%: is that where remaining activity at 10 µM of Fc1ccc(CSC2=NCN(CCc3cccc(C(F)(F)F)c3)CN2)c(CSC2=NCN(CCc3cccc(C(F)(F)F)c3)CN2)c1 sits?
// result Criterion not met

// query Strictly below 20%: is that where remaining activity at 10 µM of COc1cccc(CCN2CN=C(SCc3cc(Cl)c(Cl)cc3CSC3=NCN(CCc4cccc(OC)c4)CN3)NC2)c1 sits?
// result Criterion met

// query Strictly below 20%: is that where remaining activity at 10 µM of COc1ccc(CNC(=O)c2ccc(Br)cc2CSC(=N)N)cc1 [Compound 102, hydrobromide] sits?
// result Criterion not met

// query Strictly below 20%: is that where remaining activity at 10 µM of N=C(N)SCCc1ccccc1CSC(=N)N [Compound 51, dihydrobromide] sits?
// result Criterion met

Turning to the following compound.
// query Strictly below 20%: is that where remaining activity at 10 µM of N=C(N)SCc1ccccc1CC(=O)NCCc1ccc(Cl)c(Cl)c1 [Compound 70, hydrobromide] sits?
// result Criterion not met

###

Could you please report measured remaining activity at 10 µM for the items listed next?
- ASSAYED SYSTEM: rhTDO (recombinant human TDO) (Homo sapiens)
- Sequence (P48775 whole entry): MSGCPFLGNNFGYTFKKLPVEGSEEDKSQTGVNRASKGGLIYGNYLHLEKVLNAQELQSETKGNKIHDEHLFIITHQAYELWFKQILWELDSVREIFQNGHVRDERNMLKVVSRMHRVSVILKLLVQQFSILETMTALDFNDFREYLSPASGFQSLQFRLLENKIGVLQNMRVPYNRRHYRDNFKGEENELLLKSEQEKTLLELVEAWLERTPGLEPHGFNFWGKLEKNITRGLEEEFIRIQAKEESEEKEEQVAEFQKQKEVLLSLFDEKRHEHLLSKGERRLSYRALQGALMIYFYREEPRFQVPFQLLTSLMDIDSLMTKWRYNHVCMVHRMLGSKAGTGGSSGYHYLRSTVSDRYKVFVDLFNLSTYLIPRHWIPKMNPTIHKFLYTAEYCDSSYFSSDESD
- PROTOCOL SUMMARY: Enzyme assay using rhTDO (rate of kynurenine production)
- Assay type: biochemical
- EXPERIMENTAL SETUP: 2 h; final concentration of the compound 10 μM; rate relative to reaction without compound; read-out: rhTDO-mediated kynurenine production
Counter-ions that a name gives are not always drawn.
Answers are plain numbers, in %.

// query Give recorded remaining activity at 10 µM with rhTDO (recombinant human TDO) (Homo sapiens) for the following compound: N=C(N)SCc1ccccc1CC(=O)NCC1CC1 [Compound 71, hydrobromide]
// result 67

// query Give recorded remaining activity at 10 µM with rhTDO (recombinant human TDO) (Homo sapiens) for the following compound: N=C(N)SCc1cc(F)c(F)cc1CSC(=N)N [Compound 131, dihydrobromide]
// result 3

Working through the 6 compounds below one at a time, give remaining activity at 10 µM for each.
1. Cl.Cl.N=C(N)SCc1ccccc1CSC(=N)N [Compound 1, dihydrochloride]
2. Fc1ccc(CN2CN=C(SCc3ccccc3CSC3=NCN(Cc4ccc(F)c(F)c4)CN3)NC2)cc1F
3. N=C(N)SCc1cc(Br)ccc1C(=O)NCc1ccc(Br)cc1 [Compound 97, hydrobromide]
4. N/C(=N\c1cccc(Br)c1)SCc1cc(Cl)c(Cl)cc1CS/C(N)=N/c1cccc(Br)c1 [Compound 136, dihydrobromide]
5. N#Cc1ccc(CNC(=O)c2cc(Br)ccc2CS/C(N)=N/c2ccc(Br)cc2)cc1 [Compound 119, hydrobromide]
6. Cc1ccc(CCN2CN=C(SCc3ccccc3CSC3=NCN(CCc4ccc(C)c(C)c4)CN3)NC2)cc1C

// result
1. 13
2. 41
3. 16
4. 10
5. 50
6. 24
